Measured values drawn from paper PMC7071059 for this set.

# Test system: MOLT-4
# ASSAY PROCEDURE: NCI 60 one dose (10 μM) anticancer assay
# Assay type: cell-based
# MEASUREMENT SETUP: Homo sapiens, 10 µM one dose, Leukemia, read-out: Growth Inhibition % MOLT-4
Outcome: rule met for inhibition at 10 µM of at least 40%; rule not met for anything lower.

Here are 5 compounds together with their reported answers.
COc1cc(/C=N/NC(=O)Cn2c(-c3ccc(C)o3)nc3ccccc32)ccc1OCc1ccccc1 [Compound 17f] : rule met
CC(C)c1nc2ccccc2n1CC(=O)N/N=C/c1cccc(OCc2ccccc2)c1 [Compound 17a] : rule met
COc1cc(/C=N/NC(=O)Cn2c(C(C)C)nc3ccccc32)ccc1OCc1ccccc1 [Compound 17e] : rule not met
Cc1ccc(-c2nc3ccccc3n2CC(=O)N/N=C/c2cccc(OCc3ccccc3)c2)o1 [Compound 17b] : rule met
C/C(=N\NC(=O)Cn1c(C(C)C)nc2ccccc21)c1ccccc1 [Compound 14a] : rule not met

Q: Threshold query (inhibition at 10 µM >= 40%) on CC(C)c1nc2ccccc2n1CC(=O)N/N=C/c1ccc(OCc2ccccc2)cc1 [Compound 17c]
Ans: rule not met
